Reference source: patent US20260325561A1

METHOD NOTES: in vitro
EXPERIMENTAL PARAMETERS: human, hepg2 cells
ASSAY READOUT: CC50 at 72 h

COMPOUND | ASSAY RESULT
[N-]=[N+]=N[C@]1(CO)O[C@@H](n2ccc3c(N)ncnc32)[C@H](O)[C@@H]1O [Example 2] | > 99 µM
CC(=O)O[C@H]1[C@H](n2ncc(=O)[nH]c2=O)O[C@](F)(COC(=O)c2ccccc2)[C@H]1OC(C)=O [Example 45] | > 99 µM
Nc1ncnn2c([C@@H]3O[C@](F)(CO)[C@@H](O)[C@H]3O)cnc12 [Example 19] | < 1 µM
Nc1nc(Cl)nc2c1ncn2[C@@H]1O[C@](F)(CO)[C@@H](O)[C@H]1O [Example 43] | 10 to 99 µM
Nc1ncnc2c1ccn2[C@@H]1O[C@@](F)(CO)C[C@H]1O [Example 12] | > 99 µM
OC[C@@]1(F)O[C@@H](n2ccc3c(C4CC4)ncnc32)[C@H](O)[C@@H]1O [Example 54] | > 99 µM
OC[C@@]1(F)O[C@@H](n2ccc3c(F)ncnc32)[C@H](O)[C@@H]1O [Example 13] | 1 to 10 µM

Now examine the next entry.
Identify measured CC50 at 72 h associated with OC[C@@]1(F)O[C@@H](n2ccc3c(Cl)ncnc32)[C@H](O)[C@@H]1O [Example 4] 10 to 99 µM

###

METHOD NOTES: in vitro
EXPERIMENTAL PARAMETERS: human, hela-ace2 cells
ASSAY READOUT: CC50 at 24 h

MOL | ASSAY READOUT | ASSAY RESULT
OC[C@@]1(F)O[C@@H](n2ccc3c(Cl)ncnc32)[C@H](O)[C@@H]1O | CC50 at 24 h | 10 to 99 µM
Nc1nc(F)nc2c1ncn2[C@@H]1O[C@](F)(CO)[C@@H](O)[C@H]1O | CC50 at 24 h | 1 to 10 µM
N#C[C@]1(CO)O[C@@H](n2ccc3c(N)ncnc32)[C@H](O)[C@@H]1O | CC50 at 24 h | > 99 µM
N#Cc1cn([C@@H]2O[C@](F)(CO)[C@@H](O)[C@H]2O)c2nc[nH]c(=O)c12 | CC50 at 24 h | > 99 µM
CCOc1nc(N)nc2c1ncn2[C@@H]1O[C@](F)(CO[P@@](=O)(N[C@@H](C)C(=O)OC(C)C)Oc2ccccc2)[C@@H](O)[C@]1(F)Cl | CC50 at 24 h | 10 to 99 µM

Identify measured CC50 at 24 h associated with CNc1ncnc2c1c(F)cn2[C@@H]1O[C@](F)(CO)[C@@H](O)[C@H]1O > 99 µM

Identify measured CC50 at 24 h associated with Nc1ncnc2c1ccn2[C@@H]1O[C@](F)(CO)[C@@H](O)[C@H]1O 1 to 10 µM

Identify measured CC50 at 24 h associated with C[C@]1(O)[C@H](c2ccc3c(N)ncnn23)O[C@@](CO)(N=[N+]=[N-])[C@H]1O > 99 µM

###

METHOD NOTES: in vitro
EXPERIMENTAL PARAMETERS: human, hct-8 cells
Readings of CC50 for the listed molecules

Record excerpt, results attached:
MOLECULE | CC50
Nc1ncnc2c1ccn2[C@@H]1O[C@](F)(CO)[C@@H](O)[C@H]1O [Example 1] | 1 to 10 µM
Nc1ncnc2c1c(F)cn2[C@@H]1O[C@](F)(CO)[C@@H](O)[C@H]1O [Example 15] | < 1 µM
NC(=O)c1cn([C@@H]2O[C@](F)(CO)[C@@H](O)[C@H]2O)c2ncncc12 [Example 24] | 10 to 99 µM
OC[C@@]1(F)O[C@@H](n2cc(Br)c3cncnc32)[C@H](O)[C@@H]1O [Example 25] | < 1 µM
OC[C@@]1(F)O[C@@H](n2ccc3c(Cl)ncnc32)[C@H](O)[C@@H]1O [Example 4] | 10 to 99 µM

Now examine the next entry.
Identify measured CC50 associated with NC(=O)c1cn([C@@H]2O[C@](F)(CO)[C@@H](O)[C@H]2O)c2ncnc(N)c12 [Example 14] 1 to 10 µM

###

METHOD NOTES: Cytotoxicity, HFF
Assay type: cell-based
EXPERIMENTAL PARAMETERS: human, hff cells; read-out: HCMV/HFF CC50
ASSAY READOUT: CC50

COMPOUND | ASSAY RESULT
CCOc1nc(N)nc2c1ncn2[C@@H]1O[C@](F)(CO)[C@@H](O)C1(F)F [Example 60] | > 99 µM

Identify measured CC50 associated with Nc1ncnc2c1c(F)cn2[C@@H]1O[C@](F)(CO)[C@@H](O)[C@H]1O [Example 15] 1 to 10 µM

Identify measured CC50 associated with OC[C@@]1(F)O[C@@H](n2cc(Cl)c3cncnc32)[C@H](O)[C@@H]1O [Example 36] 1 to 10 µM

Identify measured CC50 associated with NC(=O)c1cn([C@@H]2O[C@](F)(CO)[C@@H](O)[C@H]2O)c2ncnc(N)c12 [Example 14] 1 to 10 µM

Identify measured CC50 associated with Nc1ncnc2c1c(Cl)cn2[C@@H]1O[C@](F)(CO)[C@@H](O)[C@H]1O [Example 33] 10 to 99 µM

Identify measured CC50 associated with OC[C@@]1(F)O[C@@H](n2ccc3c(F)ncnc32)[C@H](O)[C@@H]1O [Example 13] 10 to 99 µM

Identify measured CC50 associated with O=c1[nH]cnc2c1ccn2[C@@H]1O[C@](F)(CO)[C@@H](O)[C@H]1O [Example 16] > 99 µM

###

METHOD NOTES: in vitro
EXPERIMENTAL PARAMETERS: human, h1 hela cells
Readings of CC50 for the listed molecules

MOL | CC50
Nc1nc2c(ncn2[C@@H]2O[C@](F)(CO)[C@@H](O)C2(F)F)c(=O)[nH]1 | > 99 µM
N#Cc1ncnc2c1ccn2[C@@H]1O[C@](F)(COC(=O)c2ccccc2)[C@@H](O)[C@H]1OC(=O)c1ccccc1 | 10 to 99 µM
COc1ncnc2c1c(F)cn2[C@@H]1O[C@](F)(CO)[C@@H](O)[C@H]1O | 10 to 99 µM

Identify measured CC50 associated with CCOc1nc(N)nc2c1ncn2[C@@H]1O[C@](F)(CO)[C@@H](O)[C@]1(F)Cl > 99 µM

###

METHOD NOTES: in vitro
EXPERIMENTAL PARAMETERS: human, hep2 cells
Readings of CC50 for the listed compounds

Record excerpt, results attached:
COMPOUND | ASSAY RESULT
CO[C@]1(CO)O[C@@H](c2ccc3c(N)ncnn23)[C@](C)(O)[C@@H]1O [Example 3] | > 99 µM
N#Cc1ncnc2c1ccn2[C@@H]1O[C@](F)(COC(=O)c2ccccc2)[C@@H](O)[C@H]1OC(=O)c1ccccc1 [Example 50] | 10 to 99 µM
OC[C@@]1(F)O[C@@H](n2ccc3c(F)ncnc32)[C@H](O)[C@@H]1O [Example 13] | 10 to 99 µM
CNc1nc(N)nc2c1ccn2[C@@H]1O[C@](F)(COC(=O)c2ccccc2)[C@@H](O)[C@H]1O [Example 56] | > 99 µM
Nc1nc(Cl)c2ccn([C@@H]3O[C@](F)(CO)[C@@H](O)[C@H]3O)c2n1 [Example 27] | 10 to 99 µM

Identify measured CC50 associated with CC(C)C(=O)OC[C@@]1(F)O[C@@H](n2ccc3c(N)ncnc32)[C@H](OC(=O)C(C)C)[C@@H]1OC(=O)C(C)C [Example 47] 1 to 10 µM

Identify measured CC50 associated with CSc1ncnc2c1ccn2[C@@H]1O[C@](F)(CO)[C@@H](O)[C@H]1O [Example 72] 10 to 99 µM

Identify measured CC50 associated with [N-]=[N+]=N[C@]1(CO)C[C@@H](O)[C@H](n2ccc3c(N)ncnc32)O1 [Example 8] > 99 µM

Identify measured CC50 associated with N#Cc1cn([C@@H]2O[C@](F)(CO)[C@@H](O)[C@H]2O)c2ncnc(N)c12 [Example 26] < 1 µM

Identify measured CC50 associated with C[C@]1(Cl)[C@H](n2cnc3c(=O)[nH]c(N)nc32)O[C@](F)(CO)[C@H]1O [Example 62] 10 to 99 µM

Identify measured CC50 associated with C#Cc1nc(N)c2ncn([C@@H]3O[C@](F)(CO)[C@@H](O)[C@H]3O)c2n1 [Example 18] > 99 µM

Identify measured CC50 associated with OC[C@@]1(F)O[C@@H](n2ccc3c(C4CC4)ncnc32)[C@H](O)[C@@H]1O [Example 54] > 99 µM

Identify measured CC50 associated with Nc1ncnn2c([C@@H]3O[C@](F)(CO)[C@@H](O)[C@H]3O)cnc12 [Example 19] 1 to 10 µM

Identify measured CC50 associated with CNc1ncnc2c1c(F)cn2[C@@H]1O[C@](F)(CO)[C@@H](O)[C@H]1O [Example 35] 10 to 99 µM

Identify measured CC50 associated with CCOc1nc(N)nc2c1ncn2[C@@H]1O[C@](F)(CO)[C@@H](O)[C@]1(F)Cl [Example 66] > 99 µM

Identify measured CC50 associated with CC(C)C(=O)OC[C@@]1(F)O[C@@H](n2ccc3c(N)ncnc32)[C@H](O)[C@@H]1O [Example 46] 10 to 99 µM
